- System: 883617-216-R-J1-PDC tumor spheroids, viability;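 further: spheroids exposed to agents for 7 days before the viability read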
- PROTOCOL: Anticancer human tumor 883617-216-R-J1-PDC patient-derived bladder carcinoma cell line growth inhibition [PI3K]
- PARTICULARS: second compound 1 µM; first compound 0.1 µM; stronger effect = lower value; spheroids with HUVEC and MSC
# maps each entry to its viability, T/C
Your answer is read as %, so omit the unit and give the number.

Worked examples, 5 molecules total:
- MOLECULE: "C=CC(=O)N1CCN(c2nc(=O)n(-c3c(C)ccnc3C(C)C)c3nc(-c4c(O)cccc4F)c(F)cc23)C(C)C1 (stereo unspecified) + Cc1nc(NC(=O)N2CCCC2C(N)=O)sc1-c1ccnc(C(C)(C)C(F)(F)F)c1"
  VALUE: 12.8
- MOLECULE: "CC(C)n1nc(-c2ccc3oc(N)nc3c2)c2c(N)ncnc21 + COc1c(OCCCN2CCOCC2)ccc2c3n(c(=NC(=O)c4cnc(N)nc4)nc12)CCN3"
  VALUE: 2.69
- MOLECULE: "Cn1ncc(Cl)c1-c1cc(C(=O)NC(CN)Cc2cccc(F)c2)sc1Cl (stereo unspecified) + Cc1nc(NC(=O)N2CCCC2C(N)=O)sc1-c1ccnc(C(C)(C)C(F)(F)F)c1"
  VALUE: 30.8
- MOLECULE: "CCN1CCN(Cc2ccc(Nc3ncc(F)c(-c4cc(F)c5nc(C)n(C(C)C)c5c4)n3)nc2)CC1 + COc1c(OCCCN2CCOCC2)ccc2c3n(c(=NC(=O)c4cnc(N)nc4)nc12)CCN3"
  VALUE: 3.49
- MOLECULE: "CC(C)n1nc(-c2ccc3oc(N)nc3c2)c2c(N)ncnc21 + CC(Nc1ncnc2nc[nH]c12)c1cc2cccc(Cl)c2c(=O)n1-c1ccccc1"
  VALUE: 19.6

Fill in the blank: the reported viability, T/C of CCCS(=O)(=O)Nc1ccc(F)c(C(=O)c2c[nH]c3ncc(-c4ccc(Cl)cc4)cc23)c1F + Cc1nc(NC(=O)N2CCCC2C(N)=O)sc1-c1ccnc(C(C)(C)C(F)(F)F)c1 is ____.
26.5
